Recorded values, source paper PMC6832221.

- tested.system: UniProt:Q9WMX2
- Sequence (Q9WMX2 1027-1657): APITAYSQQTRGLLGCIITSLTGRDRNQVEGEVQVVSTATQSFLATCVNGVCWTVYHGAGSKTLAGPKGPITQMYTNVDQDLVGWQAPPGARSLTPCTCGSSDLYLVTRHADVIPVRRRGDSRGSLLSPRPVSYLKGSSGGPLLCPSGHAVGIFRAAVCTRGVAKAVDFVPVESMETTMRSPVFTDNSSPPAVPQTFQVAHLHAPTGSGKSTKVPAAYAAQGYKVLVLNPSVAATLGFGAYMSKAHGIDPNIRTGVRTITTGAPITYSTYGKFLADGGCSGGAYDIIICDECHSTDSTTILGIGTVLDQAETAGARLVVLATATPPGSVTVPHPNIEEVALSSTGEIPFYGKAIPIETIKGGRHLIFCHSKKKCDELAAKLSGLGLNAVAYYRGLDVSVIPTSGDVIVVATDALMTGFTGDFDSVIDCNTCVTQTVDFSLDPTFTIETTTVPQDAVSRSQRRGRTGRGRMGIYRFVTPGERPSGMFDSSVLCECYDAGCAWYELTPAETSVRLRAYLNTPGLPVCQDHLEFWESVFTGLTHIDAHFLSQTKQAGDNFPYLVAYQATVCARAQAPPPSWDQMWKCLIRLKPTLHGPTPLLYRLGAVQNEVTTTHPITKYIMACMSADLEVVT
measured.metric: IC50 (nM)

>>> observed_result("Oc1ccc(/C=C/c2cc(O)cc3c2C(c2cc(O)cc(O)c2)C(c2ccc(O)cc2)O3)cc1 (stereo not drawn) [EVF, (+)-ε-viniferin]")
58.7

###

- protocol: In vivo pharmacokinetic study of SVF in mice
- condition.description: male, ICR, mouse, oral dose of 50 mg/kg, plasma, read-out: mean Cmax
measured.metric: Cmax (ng/mL)

>>> observed_result("Oc1ccc(/C=C/c2cc(O)cc3c2C(c2cc(O)cc(O)c2)C(c2ccc(O)cc2)O3)cc1 (racemic) [SVF, (±)- -viniferin]")
53.5

###

Listing of recorded EC50 by entry.
- Tested on: genotype 2a HCV replication (Rluc-J6/JFH1)
- protocol: GT 2a luciferase reporter assay in Rluc-J6/JFH1 RNA-transfected Huh7.5 cells
- Assay type: cell-based, Hepatitis C virus
- condition.description: Hepatitis C virus, GETYPE2A|GT2A, Huh7.5, read-out: EC50 (M), GT 2a luciferase reporter assay, Table 1 summary
measured.metric: EC50 (M)

>>> observed_result("CC(=O)Oc1ccc(/C=C/c2cc(OC(C)=O)cc3c2C(c2cc(OC(C)=O)cc(OC(C)=O)c2)C(c2ccc(OC(C)=O)cc2)O3)cc1 (racemic) [SVF-5Ac, penta-acetylated (±)- -viniferin]")
"2.4e-06"
>>> observed_result("Oc1ccc(/C=C/c2cc(O)cc3c2C(c2cc(O)cc(O)c2)C(c2ccc(O)cc2)O3)cc1 (stereo not drawn) [EVF, (+)-ε-viniferin]")
"1e-07"

###

- System: Huh7.5 cells
- protocol: in vitro
- Assay type: cell-based
- condition.description: Table 1 summary; read-out: CC50 (M), GT 2a luciferase reporter assay
measured.metric: CC50

>>> observed_result("Oc1ccc(/C=C/c2cc(O)cc3c2C(c2cc(O)cc(O)c2)C(c2ccc(O)cc2)O3)cc1 (racemic) [SVF, (±)- -viniferin]")
"> 1e-05 M"
